Assign koff to each entry below.
- subject.of.test: T1, histidine-tagged human Siglec-7 (NovoProtein) (human, UniProt Q9Y286 19-353)
- T1 construct: Bought protein; also called recombinant human Siglec-7; recombinant Siglec-7; not shown: histidine tag
- assay.overview: BLI, antibody captured
A number alone suffices; assume s⁻¹.

### Prompt For the binder shown here, S7AB-H8.43 (antibody, V domains shown, also called S7AB-H.43) VH: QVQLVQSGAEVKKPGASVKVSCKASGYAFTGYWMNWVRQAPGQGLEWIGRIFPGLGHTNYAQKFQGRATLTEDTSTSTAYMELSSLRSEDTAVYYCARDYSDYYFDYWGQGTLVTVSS VL: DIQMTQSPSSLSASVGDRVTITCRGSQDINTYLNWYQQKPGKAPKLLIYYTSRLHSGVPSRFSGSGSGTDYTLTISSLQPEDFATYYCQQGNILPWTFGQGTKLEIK , give the reported koff.
### Response 5.84e-05

### Prompt Again, but for S7AB-H8.8 (antibody, V domains shown) VH: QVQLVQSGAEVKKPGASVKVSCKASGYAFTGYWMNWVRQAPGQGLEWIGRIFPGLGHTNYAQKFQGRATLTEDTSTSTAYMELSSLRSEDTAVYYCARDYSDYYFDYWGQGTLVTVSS VL: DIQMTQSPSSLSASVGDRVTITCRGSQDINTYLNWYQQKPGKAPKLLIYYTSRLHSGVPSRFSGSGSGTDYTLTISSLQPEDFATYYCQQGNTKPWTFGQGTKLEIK
### Response 6.33e-05

### Prompt Again, but for S7AB-H8.42 (antibody, V domains shown) VH: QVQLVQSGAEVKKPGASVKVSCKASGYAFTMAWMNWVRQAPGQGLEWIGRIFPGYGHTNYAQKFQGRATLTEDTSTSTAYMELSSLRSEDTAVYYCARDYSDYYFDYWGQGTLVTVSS VL: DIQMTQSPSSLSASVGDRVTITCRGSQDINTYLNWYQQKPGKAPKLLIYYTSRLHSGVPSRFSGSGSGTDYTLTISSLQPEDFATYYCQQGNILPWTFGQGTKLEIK
### Response 2.42e-05

### Prompt Again, but for S7AB-H8.32 (antibody, V domains shown) VH: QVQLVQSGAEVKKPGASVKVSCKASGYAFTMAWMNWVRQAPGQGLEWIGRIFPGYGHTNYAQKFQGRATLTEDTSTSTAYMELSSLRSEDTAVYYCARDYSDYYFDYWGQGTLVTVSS VL: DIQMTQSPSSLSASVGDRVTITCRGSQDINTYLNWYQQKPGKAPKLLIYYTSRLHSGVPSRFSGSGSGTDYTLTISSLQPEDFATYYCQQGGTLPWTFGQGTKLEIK
### Response 3.93e-05
